For each record, write down the corresponding percent control at 600 g/ha.
System: Mexican bean beetle (Epilachna varivestis)
Protocol notes: Mexican Bean Beetle Test
Assay type: in vivo
Run conditions: 600 grams per hectare, 48 hours after infestation, treated lima bean leaf
Procedure: The test solution was sprayed using a moving single boom tee jet sprayer at a volume equivalent to 935 liters/ha onto a petri dish containing a lima bean (Phaseolus limensis var: Woods' Prolific) leaf placed on a moistened piece of filter paper. After the leaf dried it was infested with ten beetles (Epilachna varivestis) and covered. The percent control was evaluated 48 hours after infestation.
Provide the reading as a plain figure in %.

Task item: Name the recorded percent control at 600 g/ha for CCOP(=S)(OCC)N(NC(=O)C(Cl)Cl)C(C)(C)C .
Reply: 100

Task item: What about CCOP(=S)(OC(C)CC)N(NC(=O)C(Cl)(Cl)Cl)C(C)(C)C (stereo not shown) ?
Reply: 100

Task item: Can you check COP(=S)(OC)N(NC(=O)C(Cl)(Cl)Cl)C(C)(C)C next?
Reply: 100

Task item: // query: CCOP(=S)(OCC)N(NC(=O)C(F)(Cl)Cl)C(C)(C)C
Reply: 80

Task item: Next: CCOP(=S)(OCC(C)(C)C)N(NC(=O)C(Cl)(Cl)Cl)C(C)(C)C (stereo not shown)
Reply: 100

Task item: How about CCCOP(=S)(OCC)N(NC(=O)C(Cl)(Cl)Cl)C(C)(C)C (stereo not shown) ?
Reply: 100

Task item: Same again, this time with CCOP(=S)(OCC)N(NC(=O)C(Br)(Br)Br)C(C)(C)C
Reply: 30

Task item: Same question for CCOP(=S)(OC(C)C)N(NC(=O)C(Cl)(Cl)Cl)C(C)(C)C (stereo not shown) please.
Reply: 100

Task item: Continue with CCCOP(=S)(OCCC)N(NC(=O)C(Cl)(Cl)Cl)C(C)(C)C
Reply: 100

Task item: Okay, and CCOP(=S)(OCC)N(NC(=O)C(Cl)(Cl)Cl)C(C)(C)C ?
Reply: 100

###

System: Southern Root-Knot Nematode Meloidogyne incognita
Protocol notes: Nematode Screening Test
Type: in vivo
Run conditions: 11400 grams per hectare; soil, cucumber roots, 21 days
Assay endpoint: Percent Control of Root Knot Nematode (percent knot reduction) (%)
A number alone suffices; assume %.

Task item: Form: Entry = COCCOP(=S)(OCCOC)N(NC(=O)C(Cl)(Cl)Cl)C(C)(C)C | System = Southern Root-Knot Nematode Meloidogyne incognita | Percent Control of Root Knot Nematode (percent knot reduction) = ____
Reply: 0

Task item: Try CCOP(=S)(OCC)N(NC(=O)C(Br)(Br)Br)C(C)(C)C next.
Reply: 98

Task item: // repeat for CCOP(=S)(OCCOC)N(NC(=O)C(Cl)Cl)C(C)(C)C (stereo not shown) and report
Reply: 90

Task item: // repeat for CCOP(=S)(OCC)N(NC(=O)C(F)(Cl)Cl)C(C)(C)C and report
Reply: 0

Task item: Field entry: CCCOP(=S)(OCCC)N(NC(=O)C(Cl)(Cl)Cl)C(C)(C)C
Reply: 0

Task item: Also need CCOP(=S)(OCC)N(NC(=O)C(F)(F)F)C(C)(C)C , thanks.
Reply: 0

Task item: Field entry: COP(=S)(OC)N(NC(=O)C(Cl)(Cl)Cl)C(C)(C)C
Reply: 100

Task item: Next: CCOP(=S)(OC(C)C)N(NC(=O)C(Cl)(Cl)Cl)C(C)(C)C (stereo not shown)
Reply: 54

Task item: Another compound to check: CCOP(=S)(OCC(C)(C)C)N(NC(=O)C(Cl)(Cl)Cl)C(C)(C)C (stereo not shown)
Reply: 0

Task item: Further, for COCCOP(=S)(OCCOC)N(NC(=O)C(Cl)Cl)C(C)(C)C ?
Reply: 0

Task item: Another compound: COP(=S)(OC)N(NC(=O)C(Cl)Cl)C(C)(C)C
Reply: 100

Task item: Another compound to check: CCCOP(=S)(OCC)N(NC(=O)C(Cl)(Cl)Cl)C(C)(C)C (stereo not shown)
Reply: 74

Task item: // repeat for CCOP(=S)(OCC)N(NC(=O)C(Cl)(Cl)Cl)C(C)(C)C and report
Reply: 98

Task item: Could you do the same for CCOP(=S)(OCC)N(NC(=O)C(Cl)Cl)C(C)(C)C , please?
Reply: 100

Task item: And CCOP(=S)(OCC)N(NC(=O)C(F)(F)Cl)C(C)(C)C ?
Reply: 0

Task item: What would you report for CCOP(=S)(OC(C)CC)N(NC(=O)C(Cl)(Cl)Cl)C(C)(C)C (stereo not shown) ?
Reply: 0

Task item: Would you kindly repeat that for CCOP(=S)(OCCOC)N(NC(=O)C(Cl)(Cl)Cl)C(C)(C)C (stereo not shown) ?
Reply: 25

Task item: // query: CCOP(=S)(OCC)N(NC(=O)CCl)C(C)(C)C
Reply: 43

Task item: Same read-out for COP(=S)(OC)N(NC(=O)CCl)C(C)(C)C ?
Reply: 0
